tested on: SR; test: Growth inhibition of human SR cells after 48 hrs by sulforhodamine B assay; format: functional
Give GI50 for every item shown.
Give a bare numeral; the unit nM is implied.

Problem: Record request: GI50 value, item "CN(C)Cc1cn(C(=O)N2c3ccccc3Sc3ccccc32)c2ccccc12"
Result: 1760

Problem: Record request: GI50 value, item "CCOC(=O)c1cc(C(=O)N2c3ccccc3Sc3ccccc32)n2c(C)cccc12"
Result: 2420

Problem: Record request: GI50 value, item "COc1c(F)ccc(C(=O)N2c3ccccc3Sc3ccccc32)c1F"
Result: 2330

Problem: Record request: GI50 value, item "CCOc1ccc(C(=O)N2c3ccccc3Sc3ccccc32)cc1Cl"
Result: 142

Problem: Record request: GI50 value, item "COc1ccc(C(=O)N2c3ccccc3Sc3ccccc32)cc1F"
Result: 271

Problem: Record request: GI50 value, item "COc1cc2cc(C(=O)N3c4ccccc4Sc4ccccc43)[nH]c2cc1OC"
Result: 303

Problem: Record request: GI50 value, item "O=C(c1ccc2c(c1)Sc1ccccc1N2)c1c[nH]c2ccccc12"
Result: 382

Problem: Record request: GI50 value, item "COc1ccc(C(=O)N2c3ccccc3Sc3ccccc32)cc1N"
Result: 30

----------
Give GI50 for every item shown.
system: MOLT-4; experiment: Growth inhibition of human MOLT4 cells after 48 hrs by sulforhodamine B assay; type: functional; conditions: MOLT-4, 48 h

Problem: Record request: GI50 value, item "O=C(c1ccc2c(c1)Sc1ccccc1N2)c1c[nH]c2ccccc12"
Result: 3750 nM

Problem: Record request: GI50 value, item "COc1ccc(C(=O)N2c3ccccc3Sc3ccccc32)cc1F"
Result: 442 nM

Problem: Record request: GI50 value, item "COc1cc2cc(C(=O)N3c4ccccc4Sc4ccccc43)[nH]c2cc1OC"
Result: 1540 nM

Problem: Record request: GI50 value, item "COc1ccc(C(=O)N2c3ccccc3Sc3ccccc32)cc1N"
Result: 380 nM

Problem: Record request: GI50 value, item "CCOc1ccc(C(=O)N2c3ccccc3Sc3ccccc32)cc1Cl"
Result: 408 nM

Problem: Record request: GI50 value, item "COc1c(F)ccc(C(=O)N2c3ccccc3Sc3ccccc32)c1F"
Result: 4290 nM

Problem: Record request: GI50 value, item "CCOC(=O)c1cc(C(=O)N2c3ccccc3Sc3ccccc32)n2c(C)cccc12"
Result: 3720 nM

Problem: Record request: GI50 value, item "CN(C)Cc1cn(C(=O)N2c3ccccc3Sc3ccccc32)c2ccccc12"
Result: 2130 nM

----------
Give log10 of GI50 for every item shown.
system: HL-60(TB); assay: Growth inhibition of human HL-60(TB) cells after 48 hrs by sulforhodamine B assay; assay type: functional; conditions: HL-60, 48 h
In our notation, the value equals log10 of GI50 in µM.

Problem: Record request: log10 of GI50 value, item "COc1ccc(C(=O)N2c3ccccc3Sc3ccccc32)cc1N"
Result: -0.61

Problem: Record request: log10 of GI50 value, item "O=C(c1ccc2c(c1)Sc1ccccc1N2)c1c[nH]c2ccccc12"
Result: -0.42

Problem: Record request: log10 of GI50 value, item "COc1ccc(C(=O)N2c3ccccc3Sc3ccccc32)cc1F"
Result: -0.57

Problem: Record request: log10 of GI50 value, item "CCOc1ccc(C(=O)N2c3ccccc3Sc3ccccc32)cc1Cl"
Result: -0.50

Problem: Record request: log10 of GI50 value, item "COc1cc2cc(C(=O)N3c4ccccc4Sc4ccccc43)[nH]c2cc1OC"
Result: -0.41

Problem: Record request: log10 of GI50 value, item "COc1c(F)ccc(C(=O)N2c3ccccc3Sc3ccccc32)c1F"
Result: 0.60

Problem: Record request: log10 of GI50 value, item "CCOC(=O)c1cc(C(=O)N2c3ccccc3Sc3ccccc32)n2c(C)cccc12"
Result: 0.49

Problem: Record request: log10 of GI50 value, item "CN(C)Cc1cn(C(=O)N2c3ccccc3Sc3ccccc32)c2ccccc12"
Result: 0.35

----------
species: Ovis aries; assay: Inhibition of sheep brain tubulin polymerization at 100 uM using DAPI by fluorimetry
Outcome label depends on inhibition relative to 50%: at/above gives class 1, below gives class 0.

Problem: Entry "CCOC(=O)c1cc(C(=O)N2c3ccccc3Sc3ccccc32)n2c(C)cccc12" : is its inhibition no less than 50%?
Result: class 0

Problem: Entry "COc1cc2cc(C(=O)N3c4ccccc4Sc4ccccc43)[nH]c2cc1OC" : is its inhibition no less than 50%?
Result: class 0

Problem: Entry "CCOc1ccc(C(=O)N2c3ccccc3Sc3ccccc32)cc1Cl" : is its inhibition no less than 50%?
Result: class 0

Problem: Entry "COc1ccc(C(=O)N2c3ccccc3Sc3ccccc32)cc1F" : is its inhibition no less than 50%?
Result: class 1

Problem: Entry "COc1cc([C@@H]2c3cc4c(cc3C[C@H]3COC(=O)[C@@H]32)OCO4)cc(OC)c1OC" : is its inhibition no less than 50%?
Result: class 1

Problem: Entry "COc1ccc(C(=O)c2cc(OC)c(OC)c(OC)c2)cc1O" : is its inhibition no less than 50%?
Result: class 1

Problem: Entry "O=C(c1ccc2c(c1)Sc1ccccc1N2)c1c[nH]c2ccccc12" : is its inhibition no less than 50%?
Result: class 1

Problem: Entry "COc1ccc(C(=O)N2c3ccccc3Sc3ccccc32)cc1N" : is its inhibition no less than 50%?
Result: class 1

Problem: Entry "COc1c(F)ccc(C(=O)N2c3ccccc3Sc3ccccc32)c1F" : is its inhibition no less than 50%?
Result: class 0

Problem: Entry "CN(C)Cc1cn(C(=O)N2c3ccccc3Sc3ccccc32)c2ccccc12" : is its inhibition no less than 50%?
Result: class 0

----------
system: SNB-75; assay: Growth inhibition of human SNB75 cells after 48 hrs by sulforhodamine B assay; format: functional; details: SNB-75, 48 h
property: GI50

Problem: Record request: GI50 value, item "CCOc1ccc(C(=O)N2c3ccccc3Sc3ccccc32)cc1Cl"
Result: 283 nM

Problem: Record request: GI50 value, item "COc1ccc(C(=O)N2c3ccccc3Sc3ccccc32)cc1N"
Result: 257 nM

Problem: Record request: GI50 value, item "CCOC(=O)c1cc(C(=O)N2c3ccccc3Sc3ccccc32)n2c(C)cccc12"
Result: 1880 nM

Problem: Record request: GI50 value, item "O=C(c1ccc2c(c1)Sc1ccccc1N2)c1c[nH]c2ccccc12"
Result: 326 nM

Problem: Record request: GI50 value, item "COc1ccc(C(=O)N2c3ccccc3Sc3ccccc32)cc1F"
Result: 222 nM

Problem: Record request: GI50 value, item "CN(C)Cc1cn(C(=O)N2c3ccccc3Sc3ccccc32)c2ccccc12"
Result: 1650 nM

Problem: Record request: GI50 value, item "COc1c(F)ccc(C(=O)N2c3ccccc3Sc3ccccc32)c1F"
Result: 2320 nM

Problem: Record request: GI50 value, item "COc1cc2cc(C(=O)N3c4ccccc4Sc4ccccc43)[nH]c2cc1OC"
Result: 392 nM

----------
Give GI50 for every item shown.
system: NCI-H522; assay: Growth inhibition of human NCI-H522 cells after 48 hrs by sulforhodamine B assay; type: functional; settings: NCI-H522, 48 h

Problem: // lookup GI50 | system=NCI-H522 | key= "CCOc1ccc(C(=O)N2c3ccccc3Sc3ccccc32)cc1Cl"
Result: 221 nM

Problem: // lookup GI50 | system=NCI-H522 | key= "CN(C)Cc1cn(C(=O)N2c3ccccc3Sc3ccccc32)c2ccccc12"
Result: 1900 nM

Problem: // lookup GI50 | system=NCI-H522 | key= "COc1c(F)ccc(C(=O)N2c3ccccc3Sc3ccccc32)c1F"
Result: 2700 nM

Problem: // lookup GI50 | system=NCI-H522 | key= "COc1ccc(C(=O)N2c3ccccc3Sc3ccccc32)cc1F"
Result: 102 nM

Problem: // lookup GI50 | system=NCI-H522 | key= "CCOC(=O)c1cc(C(=O)N2c3ccccc3Sc3ccccc32)n2c(C)cccc12"
Result: 1820 nM

Problem: // lookup GI50 | system=NCI-H522 | key= "COc1cc2cc(C(=O)N3c4ccccc4Sc4ccccc43)[nH]c2cc1OC"
Result: 335 nM

Problem: // lookup GI50 | system=NCI-H522 | key= "O=C(c1ccc2c(c1)Sc1ccccc1N2)c1c[nH]c2ccccc12"
Result: 248 nM

Problem: // lookup GI50 | system=NCI-H522 | key= "COc1ccc(C(=O)N2c3ccccc3Sc3ccccc32)cc1N"
Result: 35 nM

----------
system: HCT-15; assay: Growth inhibition of human HCT15 cells at 10 uM after 48 hrs by sulforhodamine B assay; assay type: functional; details: HCT-15, 48 h, read-out: GI
property: inhibition of growth at 10 µM (%)
Give a bare numeral; the unit % is implied.

Problem: Record request: inhibition of growth at 10 µM value, item "CC(=O)c1cn(C(=O)N2c3ccccc3Sc3ccccc32)c2ccccc12"
Result: 8.4

Problem: Record request: inhibition of growth at 10 µM value, item "O=C(c1cc2cc(F)ccc2[nH]1)N1c2ccccc2Sc2ccccc21"
Result: 45.8

Problem: Record request: inhibition of growth at 10 µM value, item "O=C(c1cnc2ccccn12)N1c2ccccc2Sc2ccccc21"
Result: 17.3

Problem: Record request: inhibition of growth at 10 µM value, item "CCOC(=O)c1cc(C(=O)N2c3ccccc3Sc3ccccc32)n2ccc(N(C)C)cc12"
Result: 18.3
